target: XRCC4 FL;XLF(1-248) (Homo sapiens;Homo sapiens, UniProt Q13426;Q9H9Q4 1-336;1-248, |); assay: tryptophan fluorescence quenching
Sequence (Q13426 whole entry, chain 1 of 2): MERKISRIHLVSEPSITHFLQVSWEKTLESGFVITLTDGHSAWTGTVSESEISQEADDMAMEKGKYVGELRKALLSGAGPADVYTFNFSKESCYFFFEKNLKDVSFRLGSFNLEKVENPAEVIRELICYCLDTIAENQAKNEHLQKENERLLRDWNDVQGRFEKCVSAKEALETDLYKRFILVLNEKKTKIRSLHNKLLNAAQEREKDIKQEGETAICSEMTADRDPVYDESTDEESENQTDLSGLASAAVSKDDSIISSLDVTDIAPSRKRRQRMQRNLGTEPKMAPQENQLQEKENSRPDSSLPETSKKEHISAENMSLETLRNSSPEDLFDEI
Sequence (Q9H9Q4 1-248, chain 2 of 2): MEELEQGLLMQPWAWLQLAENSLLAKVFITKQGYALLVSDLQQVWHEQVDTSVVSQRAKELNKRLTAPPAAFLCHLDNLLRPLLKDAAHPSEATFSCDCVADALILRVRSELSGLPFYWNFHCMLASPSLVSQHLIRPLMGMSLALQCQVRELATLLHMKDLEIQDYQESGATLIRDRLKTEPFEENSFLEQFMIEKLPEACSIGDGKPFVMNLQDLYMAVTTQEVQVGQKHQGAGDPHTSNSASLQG
experimentalEndpoint: Kd
# output: number + unit

Lab book: Kd of 40-bp DNA (dsDNA) DNA 1: GGATACACAACAGACCGCAACACTCAGATTACTTTTCGCC DNA 2: GGCGAAAAGTAATCTGAGTGTTGCGGTCTGTTGTGTATCC noted as 700 nM
